Molecular target: ALPK1 (Homo sapiens (Human), UniProt Q96QP1)
Sequence (Q96QP1 whole entry): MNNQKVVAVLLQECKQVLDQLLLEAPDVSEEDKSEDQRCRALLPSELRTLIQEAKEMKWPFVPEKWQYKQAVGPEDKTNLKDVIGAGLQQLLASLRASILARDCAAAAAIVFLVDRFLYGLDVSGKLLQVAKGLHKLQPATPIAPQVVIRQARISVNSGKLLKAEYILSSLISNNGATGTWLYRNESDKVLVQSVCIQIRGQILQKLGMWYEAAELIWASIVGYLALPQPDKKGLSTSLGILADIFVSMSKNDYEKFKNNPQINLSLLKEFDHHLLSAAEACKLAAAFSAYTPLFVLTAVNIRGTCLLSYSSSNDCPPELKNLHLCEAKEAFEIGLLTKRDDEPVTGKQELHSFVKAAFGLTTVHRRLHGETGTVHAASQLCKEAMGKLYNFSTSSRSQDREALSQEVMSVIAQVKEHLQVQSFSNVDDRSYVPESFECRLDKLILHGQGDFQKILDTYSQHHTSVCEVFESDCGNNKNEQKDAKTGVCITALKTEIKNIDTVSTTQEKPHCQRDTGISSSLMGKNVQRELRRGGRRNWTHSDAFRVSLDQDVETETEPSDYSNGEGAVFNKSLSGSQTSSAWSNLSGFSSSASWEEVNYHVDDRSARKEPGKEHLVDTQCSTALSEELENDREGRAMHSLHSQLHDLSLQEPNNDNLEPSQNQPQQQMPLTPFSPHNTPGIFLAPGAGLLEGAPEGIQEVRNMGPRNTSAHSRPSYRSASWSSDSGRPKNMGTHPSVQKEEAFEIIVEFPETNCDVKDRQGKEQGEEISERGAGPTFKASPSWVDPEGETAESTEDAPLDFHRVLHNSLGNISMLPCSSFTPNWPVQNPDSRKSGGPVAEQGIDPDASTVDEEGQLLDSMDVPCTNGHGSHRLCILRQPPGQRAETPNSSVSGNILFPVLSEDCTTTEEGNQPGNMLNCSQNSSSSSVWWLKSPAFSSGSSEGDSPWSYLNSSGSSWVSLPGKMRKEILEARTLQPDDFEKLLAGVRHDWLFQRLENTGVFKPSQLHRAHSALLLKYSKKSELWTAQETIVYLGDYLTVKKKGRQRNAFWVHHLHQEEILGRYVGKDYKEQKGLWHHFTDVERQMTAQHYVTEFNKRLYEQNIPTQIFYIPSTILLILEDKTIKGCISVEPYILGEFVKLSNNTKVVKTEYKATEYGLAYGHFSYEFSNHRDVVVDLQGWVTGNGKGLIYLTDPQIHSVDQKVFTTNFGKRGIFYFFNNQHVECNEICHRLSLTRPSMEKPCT
Assay: ALPK1 in vitro kinase assay (HTRF of TIFA phosphorylation)
Conditions: ALPK1 2 nM activated by ADP-Heptose, TIFA substrate
Method: ALPK1 in vitro Kinase Assay ALPK1 kinase activity was measured in an in vitro assay using ADP-Heptose as the ALPK1 ligand and activator of its kinase activity and TIFA protein as the ALPK1 phosphorylation substrate. Since phosphorylated TIFA proteins oligomerize, Homogeneous Time-Resolved Fluorescence (HTRF) was used to measure protein: protein interaction between HA-tagged TIFA proteins as an indicator of TIFA phosphorylation. […]

compound | target.or.test.system | IC50
C#C[C@](C)(c1ccc(Cl)cc1)c1csc(NC(=O)c2c(F)cc(N3CCN(C)CC3)cc2F)n1 (stereo in doubt) | ALPK1 (Homo sapiens (Human), UniProt Q96QP1) | 7 nM
C#C[C@@](C)(c1ccc(F)cc1)c1csc(NC(=O)c2ccc(N3CCNCC3CO)cc2)n1 (stereo in doubt) | ALPK1 (Homo sapiens (Human), UniProt Q96QP1) | 169 nM
C#C[C@](C)(c1ccc(Cl)cc1)c1nc(NC(=O)c2c(F)cc(N3CCNCC3)cc2F)sc1Cl (stereo in doubt) | ALPK1 (Homo sapiens (Human), UniProt Q96QP1) | 923 nM
COc1ccc(C(C)(C)c2csc(NC(=O)c3ccc(N4CCC(O)C4)cc3)n2)cc1 (centres unmarked) | ALPK1 (Homo sapiens (Human), UniProt Q96QP1) | 95 nM
COc1ccc(C(C)(C)c2csc(NC(=O)c3ccc(N4CCNCC4C)cc3)n2)cc1 (centres unmarked) | ALPK1 (Homo sapiens (Human), UniProt Q96QP1) | 300 nM

Values from patent US20250381196A1
